Collected from the literature: pIC50 of various compounds toward Serine/threonine-protein kinase PLK1 (Homo sapiens).
pIC50: −log10 of the molar value.

Sample answers from the record:
| compound | valueMeasured |
| --- | --- |
| O=C1Nc2ccc(F)cc2/C1=C\c1ccc2cn[nH]c2c1 | 4.30 to 5.30 |
| COc1cc2ncn(-c3nc(-c4cccc(Cl)c4)c(C(N)=O)s3)c2cc1OCCCN1CCOCC1 | 8.10 |
| COc1cc2ncn(-c3nc(-c4cccc(C(F)(F)F)c4)c(C(=O)O)s3)c2cc1OC | 6.80 |
| NC(=O)c1sc(-n2cnc3ccc(CN4CCCCC4)cc32)nc1-c1cccc(Cl)c1 | 5.46 |
| CC(=O)Nc1ccc2c(c1)NC(=O)/C2=C/c1ccc2nn[nH]c2c1 | 4.30 to 5.30 |

Kindly review the next compound as well.
Problem: Answer briefly: pIC50 recorded on Serine/threonine-protein kinase PLK1 (Homo sapiens) for `CC[C@H]1C(=O)N(C)c2cnc(-n3ccnc3-c3ccc(F)cc3)nc2N1c1ccn(C)n1`
Solution: < 4.30

----------
Collected from the literature: IC50 of various molecules toward Serine/threonine-protein kinase PLK1 (Homo sapiens, UniProt P53350).
readoutLabel: IC50 (µM)

| structureSmilesString | IC50, µM |
| --- | --- |
| CC(C)(N)C(=O)NC1CCN(Cc2ccc3ncn(-c4nc(-c5cccc(Cl)c5)c(C(N)=O)s4)c3c2)CC1 | 1.29 |

[P] COc1cc2ncn(-c3nc(-c4ccccc4)c(C(=O)NC4CC4)s3)c2cc1OC
[Q] COc1cc(C(=O)NC2CCN(C)CC2)ccc1Nc1ncc2c(n1)N(C1CCCC1)[C@H](CC(C)C)C(=O)N2C
Problem: Out of P and Q , name the one with the higher IC50. // return label of chosen record
Solution: P

----------
Collected from the literature: IC50 of various compounds toward Serine/threonine-protein kinase PLK1 (Homo sapiens).

Sample answers from the record:
| compound | IC50 |
| --- | --- |
| Cc1cc(C)cc(-c2ccnc3[nH]cc(C=O)c23)c1 | ≤ 10000 nM |
| CCC1C(=O)N(C)c2cnc(-n3ccnc3-c3ccccc3)nc2N1NC(=O)OC(C)(C)C (stereo not shown) | > 50000 nM |
| NC(=O)c1sc(-n2cnc3ccc(CN4CCN(CCO)CC4)cc32)nc1-c1cccc(Cl)c1 | 91 nM |
| NC(=O)c1sc(-n2cnc3ccc(OCCCN(CCO)CCO)cc32)nc1-c1cccc(Cl)c1 | 68 nM |
| COc1cc2ncn(-c3nc(-c4ccsc4)c(C(=O)O)s3)c2cc1OC | 781 nM |
| CC[C@@H]1C(=O)N(C)c2cnc(-c3cnoc3-c3ccccc3)nc2N1C1CCCC1 | < 1000 nM |
| O=S(=O)(Cc1ccccc1)NCc1c[nH]c2ncccc12 | ≤ 10000 nM |
| CC[C@@H]1C(=O)N(C)c2cnc(Nc3ccc(C(=O)NC4CCN(CCCC(=O)N[C@@H](CC(C)C)C(=O)OC5CCCC5)CC4)cc3OC)nc2N1C1CCCC1 | < 100 nM |
| CN1CCC(Oc2ccc3ncn(-c4nc(-c5cccc(Cl)c5)c(C(N)=O)s4)c3c2)CC1 | 18 nM |
| CCN1CCC[C@H]1CNC(=O)c1ccc(-c2c(F)cnc3[nH]c4cnc(-c5cccnc5)cc4c23)cc1 | 100 to 1000 nM |

Problem: Answer briefly: IC50 recorded on Serine/threonine-protein kinase PLK1 (Homo sapiens) for COc1cc(C(=O)NC2CCN(C)CC2)ccc1Nc1ncc2c(n1)N(C1CCCC1)CC(CCO)C(=O)N2C (racemic)
Solution: 500 to 5000 nM

Problem: Answer briefly: IC50 recorded on Serine/threonine-protein kinase PLK1 (Homo sapiens) for C=CCn1c(=O)c2cnc(Nc3ccc(N4CCN(CCCCCCNc5cccc6c5C(=O)N(C5CCC(=O)NC5=O)C6=O)CC4)cc3)nc2n1-c1cccc(C(C)(C)O)n1 (stereo not shown)
Solution: 23.6 nM

Problem: Answer briefly: IC50 recorded on Serine/threonine-protein kinase PLK1 (Homo sapiens) for `CN1CCN(Cc2ccc3ncn(-c4nc(-c5ccccc5C(F)(F)F)c(C(N)=O)s4)c3c2)CC1`
Solution: 1140 nM

Problem: Answer briefly: IC50 recorded on Serine/threonine-protein kinase PLK1 (Homo sapiens) for C=CCN1CC(C)C(=O)N(C)c2cnc(Nc3ccc(C(=O)NC4CCN(C)CC4)cc3OC)nc21 (racemic)
Solution: < 500 nM

Problem: Answer briefly: IC50 recorded on Serine/threonine-protein kinase PLK1 (Homo sapiens) for `CC[C@@H]1C(=O)N(C)c2cnc(-n3cnc(CC#N)c3)nc2N1C1CCCC1`
Solution: 1000 to 10000 nM

Problem: Answer briefly: IC50 recorded on Serine/threonine-protein kinase PLK1 (Homo sapiens) for `c1cncc(-c2cc3c(cn2)[nH]c2ncc(N4CCOCC4)cc23)c1`
Solution: > 5000 nM
